- PROTOCOL_NOTES: Serum fatty acid form concentrations (complex lipidomics) in dolphins fed modified diet
- Assay type: in vivo, bottlenose dolphin (Tursiops truncatus)
- RECORDED_CONDITIONS: case dolphins fed modified diet (n = 20), Month 0 (baseline)
PARAMETER_MEASURED: Serum concentrations of fatty acid forms (µM)

// below: answered molecules
Prompt: Suppose we examine the molecule CCCCCCCCCCCCCCCCCCCCCC(=O)O[C@H]1CC[C@@]2(C)C(=CC[C@H]3[C@@H]4CC[C@H]([C@H](C)CCCC(C)C)[C@@]4(C)CC[C@@H]32)C1 [C22:0 CE] ; what Serum concentrations of fatty acid forms value has been reported?
Response: 8.5

Prompt: Suppose we examine the molecule CCCCCCCCCCCCCCCCC(=O)O[C@H]1CC[C@@]2(C)C(=CC[C@H]3[C@@H]4CC[C@H]([C@H](C)CCCC(C)C)[C@@]4(C)CC[C@@H]32)C1 [C17:0 CE] ; what Serum concentrations of fatty acid forms value has been reported?
Response: 14

Prompt: Suppose we examine the molecule CCCCCCCCCCCCCCCCCCCC(=O)O [C20:0 FFA] ; what Serum concentrations of fatty acid forms value has been reported?
Response: 6.6

A. CCCCCCCCCCCCCC(=O)O[C@H]1CC[C@@]2(C)C(=CC[C@H]3[C@@H]4CC[C@H]([C@H](C)CCCC(C)C)[C@@]4(C)CC[C@@H]32)C1 [C14:0 CE]
B. CCCCCCCCCCCCC/C=C/[C@@H](O)[C@H](CO)NC(=O)CCCCCCCCCCCCCCCCCCCCC [C22:0 CER]
Prompt: Between these two entries, A and B , state which has the higher Serum concentrations of fatty acid forms. Please indicate the selected item by its label.
Response: A
(A: 126 µM, B: 0.19 µM)

1. CCCCCCCCCCCCCCCC(=O)O[C@H]1CC[C@@]2(C)C(=CC[C@H]3[C@@H]4CC[C@H]([C@H](C)CCCC(C)C)[C@@]4(C)CC[C@@H]32)C1 [C16:0 CE]
2. CCCCCCCCCCCCCCC(=O)O[C@H]1CC[C@@]2(C)C(=CC[C@H]3[C@@H]4CC[C@H]([C@H](C)CCCC(C)C)[C@@]4(C)CC[C@@H]32)C1 [C15:0 CE]
Prompt: Between these two entries, 1 and 2 , state which has the higher Serum concentrations of fatty acid forms. Please indicate the selected item by its label.
Response: 1
(1: 273 µM, 2: 22 µM)

Every entry's value here was drawn from patent US10238618B2.
